Numbers sourced from the supplement of paper PMC10567573.

B1: HNF4A (parent)
chain: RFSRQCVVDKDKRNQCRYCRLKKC

variants of: B1; test: protein stability index of a GFP-peptide fusion (GPS, HEK-293T) (PSI 1-6); higher = more stable; conditions: c terminus: a fixed tail appended;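 note: lentivirally expressed fusions sorted by FACS into six bins by GFP to DsRed ratio, PSI derived from sequencing read proportions per bin multiplied by bin number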
Tag: true if measured protein stability index is not below 3, false if it is.

Request: Can R20G be said to have protein stability index at or above 3?
Result: true

Request: Can Q5M be said to have protein stability index at or above 3?
Result: true

Request: Can R20Y be said to have protein stability index at or above 3?
Result: false

Request: Can R13G be said to have protein stability index at or above 3?
Result: false

Request: Can K23Q be said to have protein stability index at or above 3?
Result: false

Request: Can R4P be said to have protein stability index at or above 3?
Result: false

Request: Can Q15D be said to have protein stability index at or above 3?
Result: false

Request: Can C19Q be said to have protein stability index at or above 3?
Result: true

Request: Can N14M be said to have protein stability index at or above 3?
Result: false

Request: Can C6W be said to have protein stability index at or above 3?
Result: false

Request: Can K10Y be said to have protein stability index at or above 3?
Result: false

Request: Can L21A be said to have protein stability index at or above 3?
Result: true

Request: Can D11E be said to have protein stability index at or above 3?
Result: false

Request: Can R17D be said to have protein stability index at or above 3?
Result: true

Request: Can S3D be said to have protein stability index at or above 3?
Result: false

Request: Can R1I be said to have protein stability index at or above 3?
Result: false

Request: Can R20W be said to have protein stability index at or above 3?
Result: false

Request: Can K22I be said to have protein stability index at or above 3?
Result: false

Request: Can K22M be said to have protein stability index at or above 3?
Result: false

Request: Can D11R be said to have protein stability index at or above 3?
Result: false

Request: Can K10I be said to have protein stability index at or above 3?
Result: false

Request: Can R13Q be said to have protein stability index at or above 3?
Result: false

Request: Can C6Y be said to have protein stability index at or above 3?
Result: false

Request: Can V7M be said to have protein stability index at or above 3?
Result: false

Request: Can K12I be said to have protein stability index at or above 3?
Result: false

Request: Can R13Y be said to have protein stability index at or above 3?
Result: false

Request: Can Q5C be said to have protein stability index at or above 3?
Result: false

Request: Can K22F be said to have protein stability index at or above 3?
Result: false

Request: Can N14L be said to have protein stability index at or above 3?
Result: false

Request: Can Y18R be said to have protein stability index at or above 3?
Result: true

Request: Can C16P be said to have protein stability index at or above 3?
Result: true

Request: Can N14G be said to have protein stability index at or above 3?
Result: false

Request: Can F2R be said to have protein stability index at or above 3?
Result: true

Request: Can N14P be said to have protein stability index at or above 3?
Result: false

Request: Can Y18L be said to have protein stability index at or above 3?
Result: false

Request: Can Q15C be said to have protein stability index at or above 3?
Result: false

Request: Can C24S be said to have protein stability index at or above 3?
Result: false

Request: Can V8A be said to have protein stability index at or above 3?
Result: false

Request: Can D11S be said to have protein stability index at or above 3?
Result: false

Request: Can Y18H be said to have protein stability index at or above 3?
Result: true

Request: Can R17G be said to have protein stability index at or above 3?
Result: true

Request: Can V7D be said to have protein stability index at or above 3?
Result: true

Request: Can R17H be said to have protein stability index at or above 3?
Result: false

Request: Can C6L be said to have protein stability index at or above 3?
Result: false

Request: Can Y18C be said to have protein stability index at or above 3?
Result: true

Request: Can C19D be said to have protein stability index at or above 3?
Result: true

Request: Can K23C be said to have protein stability index at or above 3?
Result: false

Request: Can L21Q be said to have protein stability index at or above 3?
Result: true

Request: Can S3M be said to have protein stability index at or above 3?
Result: false

Request: Can V8H be said to have protein stability index at or above 3?
Result: true

Request: Can C16A be said to have protein stability index at or above 3?
Result: false

Request: Can F2S be said to have protein stability index at or above 3?
Result: true

Request: Can Q5T be said to have protein stability index at or above 3?
Result: false

Request: Can C6K be said to have protein stability index at or above 3?
Result: true

Request: Can D11C be said to have protein stability index at or above 3?
Result: true

Request: Can K23F be said to have protein stability index at or above 3?
Result: false

Request: Can V7H be said to have protein stability index at or above 3?
Result: false

Request: Can V8T be said to have protein stability index at or above 3?
Result: false

Request: Can Q5H be said to have protein stability index at or above 3?
Result: false

Request: Can Y18I be said to have protein stability index at or above 3?
Result: true

Request: Can F2Q be said to have protein stability index at or above 3?
Result: true

Request: Can N14D be said to have protein stability index at or above 3?
Result: false

Request: Can L21M be said to have protein stability index at or above 3?
Result: true

Request: Can F2H be said to have protein stability index at or above 3?
Result: true

Request: Can C16N be said to have protein stability index at or above 3?
Result: true

Request: Can K12Q be said to have protein stability index at or above 3?
Result: false

Request: Can K22V be said to have protein stability index at or above 3?
Result: false

Request: Can R1W be said to have protein stability index at or above 3?
Result: false

Request: Can S3L be said to have protein stability index at or above 3?
Result: false

Request: Can D11V be said to have protein stability index at or above 3?
Result: false

Request: Can K12P be said to have protein stability index at or above 3?
Result: false

Request: Can R17K be said to have protein stability index at or above 3?
Result: false

Request: Can Q15S be said to have protein stability index at or above 3?
Result: false

Request: Can K10D be said to have protein stability index at or above 3?
Result: false

Request: Can Q5W be said to have protein stability index at or above 3?
Result: false

Request: Can L21K be said to have protein stability index at or above 3?
Result: true

Request: Can V7G be said to have protein stability index at or above 3?
Result: false
